Target: rat soleus muscles
Test: Tubocurarine concentration required to depress nerve-stimulated force by 50% (Kd,tub), combination with acetylcholinesterase inhibitors
Conditions: Compound (50 μM) alone
VALUE TYPE: pKd
Remember the convention: pKd equals -log10 of concentration in molar.

Summary for this compound, C[C@H](Oc1ccc(Br)cc1)C(=O)O : pKd is 6.75

###

Target: rat soleus muscles
Test: Mg2+ concentration required to depress nerve-stimulated force by 50% (Kd,Mg2+), combination with 3,4-AP
Details: 3,4-AP (10 μM) alone
Method: FIGS. 6A-6E. […] Muscles from 4-week-old rats were stimulated to contract by activating the motor nerve with short duration pulses in field stimulation. Muscles contracted every 10 min for 2 s in response to 30 Hz stimulation. Four different experimental conditions were used. […] C) similar to A) but this muscle had been pre-incubated with 3,4-AP. […] The force integral (AUC) was determined at each extracellular Mg^2+ concentration. […]
VALUE TYPE: Kd (mM)
The reply should be a number in mM, with the unit left off.

Summary for this compound, Nc1ccncc1N [3,4-AP, 3,4-diaminopyridine, reference compound] : Kd is 5.8

###

Biological target: rat soleus muscles
Assay: Tubocurarine concentration required to depress nerve-stimulated force by 50% (Kd,tub), combination with acetylcholinesterase inhibitors
Conditions: Neostigmine (10 nM) alone
VALUE TYPE: pKd
Remember the convention: pKd equals -log10 of concentration in molar.

Summary for this molecule, CN(C)C(=O)Oc1cccc([N+](C)(C)C)c1 [Neostigmine, neostigmine, reference compound] : pKd is 6.78

###

Biological target: rat soleus muscles
Experiment: Mg2+ concentration required to depress nerve-stimulated force by 50% (Kd,Mg2+), combination with 3,4-AP
Conditions: Compound (50 μM) + 3,4-AP (10 μM)
VALUE TYPE: Kd (mM)
The reply should be a number in mM, with the unit left off.

Summary for this molecule, C[C@H](Oc1ccc(Br)cc1)C(=O)O : Kd is 7.8

###

Biological target: rat soleus muscles
Experiment: Tubocurarine concentration required to depress nerve-stimulated force by 50% (Kd,tub), combination with acetylcholinesterase inhibitors
Conditions: Pyridostigmine (100 nM) alone
VALUE TYPE: pKd
Remember the convention: pKd equals -log10 of concentration in molar.

Item: CN(C)C(=O)Oc1ccc[n+](C)c1 [Pyridostigmine, pyridostigmine, reference compound] | System: rat soleus muscles | pKd: 6.90

###

Molecular target: rat soleus muscles
Assay: Tubocurarine concentration required to depress nerve-stimulated force by 50% (Kd,tub), combination with acetylcholinesterase inhibitors
Conditions: Compound (50 μM) + Pyridostigmine (100 nM)
VALUE TYPE: Kd (nM)
The reply should be a number in nM, with the unit left off.

Item: C[C@H](Oc1ccc(Br)cc1)C(=O)O | System: rat soleus muscles | Kd: 186

###

Biological target: CIC-1 ion channels (Homo sapiens)
Construct: Isolated soleus muscles from adult rats or human abdominal muscles preparations were placed in a chamber
Assay: Resting membrane conductance (Gm), three-electrode technique, human muscle: Kd for CIC-1 inhibition
Details: concentration that reduced Gm by 50%
VALUE TYPE: pKd
Remember the convention: pKd equals -log10 of concentration in molar.

Summary for this molecule, C[C@H](Oc1ccc(Br)cc1)C(=O)O [Compound C8, (2S)-2-(4-bromophenoxy)propanoic acid] : pKd is 5.26

###

Reported ΔV½ values are given for each entry in this list.
Biological target: human CIC-1 channels (Homo sapiens)
Construct: host or cells: CHO (Chinese hamster ovary) cells
Sequence (P35523 whole entry): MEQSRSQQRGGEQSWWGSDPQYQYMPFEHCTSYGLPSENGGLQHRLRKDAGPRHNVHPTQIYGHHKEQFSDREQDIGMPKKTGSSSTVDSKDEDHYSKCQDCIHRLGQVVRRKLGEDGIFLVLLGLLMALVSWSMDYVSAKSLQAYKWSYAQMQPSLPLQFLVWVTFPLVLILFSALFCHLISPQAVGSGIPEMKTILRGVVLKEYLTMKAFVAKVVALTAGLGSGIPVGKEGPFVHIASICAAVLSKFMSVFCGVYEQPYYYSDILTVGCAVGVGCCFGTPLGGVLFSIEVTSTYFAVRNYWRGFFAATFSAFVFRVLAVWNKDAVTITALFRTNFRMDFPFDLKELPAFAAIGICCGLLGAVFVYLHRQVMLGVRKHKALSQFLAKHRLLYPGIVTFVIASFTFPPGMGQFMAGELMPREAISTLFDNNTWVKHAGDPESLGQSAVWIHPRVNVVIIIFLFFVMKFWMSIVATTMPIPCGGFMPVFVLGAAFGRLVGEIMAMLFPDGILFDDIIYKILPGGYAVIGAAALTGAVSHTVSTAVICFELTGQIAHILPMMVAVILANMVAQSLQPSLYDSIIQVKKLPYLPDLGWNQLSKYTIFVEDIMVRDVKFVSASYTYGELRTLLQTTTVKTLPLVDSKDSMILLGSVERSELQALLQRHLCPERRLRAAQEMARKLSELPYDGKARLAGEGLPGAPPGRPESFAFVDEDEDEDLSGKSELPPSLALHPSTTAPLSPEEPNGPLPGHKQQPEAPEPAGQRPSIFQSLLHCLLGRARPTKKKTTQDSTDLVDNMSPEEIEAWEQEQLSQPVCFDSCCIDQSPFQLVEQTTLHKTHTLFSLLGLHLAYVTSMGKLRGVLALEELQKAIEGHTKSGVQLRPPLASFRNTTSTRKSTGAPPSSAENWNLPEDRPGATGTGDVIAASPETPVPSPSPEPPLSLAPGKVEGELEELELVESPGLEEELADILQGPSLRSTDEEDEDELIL
Test: Automated patch-clamp on human CIC-1 expressed in CHO cells
Assay type: cell-based
Conditions: compound added to the intracellular solution vs vehicle control patches; positive shift reflects CIC-1 inhibition
The reply should be a number in mV, with the unit left off.

Examples with their reported ΔV½ follow.
SMILES INPUT | MEASUREMENT
C[C@H](Oc1ccc(Cl)cc1C1CC1)C(=O)O | 8.8
CCC(=O)c1cc(Cl)ccc1O[C@@H](C)C(=O)O | 6.2
C#Cc1cc(Br)ccc1O[C@@H](C)C(=O)O | 7.7
C=Cc1cc(Br)ccc1O[C@@H](C)C(=O)O | 10.3
C[C@H](Oc1ccc(Br)cc1C=C(F)F)C(=O)O | 21.5

Summary for this compound, C#Cc1cc(Cl)ccc1O[C@@H](C)C(=O)O : ΔV½ is 26.4

Summary for this compound, C[C@H](Oc1ccc(Br)cc1C1CC1)C(=O)O : ΔV½ is 9.2
